Item-by-item account of pEC50
Molecular target: GLP-1R (Homo sapiens, UniProt P43220)
Sequence (P43220 24-463): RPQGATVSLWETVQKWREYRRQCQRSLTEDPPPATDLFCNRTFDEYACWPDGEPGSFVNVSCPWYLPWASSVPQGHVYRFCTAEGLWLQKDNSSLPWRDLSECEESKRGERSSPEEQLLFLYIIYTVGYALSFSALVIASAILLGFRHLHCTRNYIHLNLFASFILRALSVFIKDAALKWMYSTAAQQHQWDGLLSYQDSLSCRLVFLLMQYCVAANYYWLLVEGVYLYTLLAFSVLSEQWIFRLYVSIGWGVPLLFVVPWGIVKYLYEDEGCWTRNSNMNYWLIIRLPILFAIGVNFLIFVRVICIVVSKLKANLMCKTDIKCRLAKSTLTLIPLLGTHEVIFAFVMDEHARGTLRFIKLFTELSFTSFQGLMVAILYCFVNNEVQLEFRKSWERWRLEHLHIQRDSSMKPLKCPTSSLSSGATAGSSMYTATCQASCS
Sequence (P01275 100-127 partner limits assumed): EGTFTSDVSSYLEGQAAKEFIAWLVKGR
Test: EC20 GLP-1(9-36) PAM cAMP assay: dose response of compound in the presence of fixed concentration of GLP-1(9-36)
Conditions: GLP-1R CRE-bla CHO-K1 cells, compound dose response in presence of fixed concentration of GLP-1(9-36)
pEC50: −log10 of the molar value.

Q: Data request, read-out pEC50, for `CCCCCCCOc1ccc(-c2cnc(-c3ccc(C[C@H](NC(=O)c4cccc(N)c4)C(=O)O)cc3)nc2)cc1`
A: 5.60 to 6.10

Q: Now this one: `CC(C)(C)c1ccc(C(=O)N[C@@H](Cc2ccc(-c3noc(-c4ccc(-c5ccccc5Cl)cc4)n3)cc2)C(=O)O)cc1`
A: 5.60 to 6.10

Q: // query: `CCCCCCCOc1ccc(-c2cnc(-c3ccc(C[C@H](NC(=O)c4ccc(N5CCCC5)cc4)C(=O)O)cc3)nc2)cc1`
A: 5.30 to 5.60

Q: Please answer likewise for `CC(C)(C)c1ccc(C(=O)N[C@@H](Cc2ccc(-c3noc(-c4ccc5[nH]ccc5c4)n3)cc2)C(=O)O)cc1`
A: 5.60 to 6.10

Q: What would you report for `CCCCCCCOc1ccc(-c2cnc(-c3ccc(C[C@H](NC(=O)c4ccc(C(C)C)cc4)C(=O)N[C@H](C)C(=O)O)cc3)nc2)cc1` ?
A: 5.60 to 6.10

Q: Now give it for `CC(C)(C)c1ccc(C(=O)N[C@@H](Cc2ccc(-c3noc(-c4ccc(C(N)=O)cc4)n3)cc2)C(=O)O)cc1` too.
A: 5.30 to 5.60

---

Target: UniProt:P43220
Assay: EC20 GLP-1(9-36) PAM cAMP assay: dose response of compound in the presence of fixed concentration of GLP-1(9-36)
Details: GLP-1R CRE-bla CHO-K1 cells, compound dose response in presence of fixed concentration of GLP-1(9-36)
readout.name: EC50

In the examples that follow, each entry is paired with its recorded EC50.
1. CCCCCCCOc1ccc(-c2cnc(-c3ccc(C[C@H](NC(=O)c4ccc(C(C)(C)C)s4)C(=O)N[C@@H](C)CC(=O)O)cc3)nc2)cc1 [Compound 346]	800 to 2500 nM
2. CCCCCCCOc1ccc(-c2cnc(-c3ccc(C[C@H](NC(=O)c4ccc(C(C)(C)C)s4)C(=O)N[C@H](Cc4cnc[nH]4)C(=O)O)cc3)nc2)cc1 [Compound 325]	5000 to 10000 nM
3. CCCCCCCCCCOc1ccc(-c2cnc(-c3ccc(C[C@H](NC(=O)c4ccc(C(C)(C)C)s4)C(=O)O)cc3)nc2)cc1 [Compound 249]	5000 to 10000 nM
4. CCCCCCCOc1ccc(-c2cnc(-c3ccc(C[C@H](NC(=O)c4cc5cccnc5s4)C(=O)O)cc3)nc2)cc1 [Compound 158]	< 800 nM

Q: Fill blank: measured EC50 of the compound CCCCCCCOc1ccc(-c2noc(-c3ccc(C[C@H](NC(=O)c4ccc(C(C)(C)C)cc4)C(=O)O)cc3)n2)cc1 [Compound 1] is ____.
A: 800 to 2500 nM

Q: Param item: CC(=O)c1ccc(-c2nc(-c3ccc(C[C@H](NC(=O)c4ccc(C(C)(C)C)cc4)C(=O)O)cc3)no2)cc1 [Compound 45]
A: 800 to 2500 nM

Q: Now give it for Cc1cc(C)cc(-c2nc(-c3ccc(C[C@H](NC(=O)c4ccc(C(C)(C)C)cc4)C(=O)O)cc3)no2)c1 [Compound 57] too.
A: 2500 to 5000 nM

Q: Likewise for CCCCCCCOc1ccc(-c2ccc(-c3ccc(C[C@H](NC(=O)c4ccc(C(C)(C)C)s4)C(=O)NCC(=O)O)cc3)nn2)cc1 [Compound 283] ?
A: 5000 to 10000 nM

Q: # iterate: CCCCCCCOc1ccc(-c2cnc(-c3ccc(C[C@H](NC(=O)c4ccc(OS(C)(=O)=O)cc4)C(=O)O)cc3)nc2)cc1 [Compound 183]
A: 800 to 2500 nM

Q: // next record CCCCCCCOc1ccc(N2CCN(c3ccc(C[C@H](NC(=O)c4ccc(C(C)(C)C)cc4)C(=O)O)cc3)CC2)cc1 [Compound 267]
A: 800 to 2500 nM

Q: What about this compound? COc1cccc(-c2cnc(-c3ccc(C[C@H](NC(=O)c4ccc(C(C)(C)C)cc4)C(=O)O)cc3)nc2)c1 [Compound 215]
A: 2500 to 5000 nM

Q: Check CCCCCCCOc1ccc(-c2cnc(-c3ccc(C[C@H](NC(=O)c4ccc(C(C)(C)C)s4)C(=O)N[C@@H](CCC(=O)O)C(=O)O)cc3)nc2)cc1 [Compound 330] too.
A: 800 to 2500 nM

Q: Same question for CN(C)c1cccc(-c2cnc(-c3ccc(C[C@H](NC(=O)c4ccc(C(C)(C)C)cc4)C(=O)O)cc3)nc2)c1 [Compound 202] please.
A: 5000 to 10000 nM
